Target: ammonium transporter AMT1 (Arabidopsis thaliana)
Sequence (P54144 1-501): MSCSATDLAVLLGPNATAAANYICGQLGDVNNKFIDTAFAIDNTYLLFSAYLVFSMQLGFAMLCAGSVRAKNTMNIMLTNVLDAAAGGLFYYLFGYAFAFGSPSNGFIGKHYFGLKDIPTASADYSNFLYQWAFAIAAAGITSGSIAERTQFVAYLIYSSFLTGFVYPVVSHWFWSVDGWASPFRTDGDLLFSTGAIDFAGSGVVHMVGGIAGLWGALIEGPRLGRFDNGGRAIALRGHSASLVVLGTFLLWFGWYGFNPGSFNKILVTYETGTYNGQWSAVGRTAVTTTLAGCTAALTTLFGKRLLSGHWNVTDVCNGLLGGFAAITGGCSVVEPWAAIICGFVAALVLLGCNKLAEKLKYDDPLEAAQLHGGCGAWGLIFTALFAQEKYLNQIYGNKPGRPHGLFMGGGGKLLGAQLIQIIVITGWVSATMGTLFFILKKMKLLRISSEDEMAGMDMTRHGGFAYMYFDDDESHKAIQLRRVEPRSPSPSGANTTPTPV
Test: Substrate specificity, Km and Ki determination of the ammonium transporter in yeast strain 26972c
Details: inhibition of methylamine transport by various concentrations of ammonium; read-out: Ki (inhibitor constant)
measure_name: Ki

> print(dat)
   molecule.smiles  measure.name   result
1                N            Ki  < 10 µM

---

Biological target: sucrose transporter S21 (SoSUT1) (Spinacia oleracea, UniProt Q03411)
Construct: expressed in transfected cells; host or cells: Saccharomyces cerevisiae SUSY7
Sequence (Q03411 1-525): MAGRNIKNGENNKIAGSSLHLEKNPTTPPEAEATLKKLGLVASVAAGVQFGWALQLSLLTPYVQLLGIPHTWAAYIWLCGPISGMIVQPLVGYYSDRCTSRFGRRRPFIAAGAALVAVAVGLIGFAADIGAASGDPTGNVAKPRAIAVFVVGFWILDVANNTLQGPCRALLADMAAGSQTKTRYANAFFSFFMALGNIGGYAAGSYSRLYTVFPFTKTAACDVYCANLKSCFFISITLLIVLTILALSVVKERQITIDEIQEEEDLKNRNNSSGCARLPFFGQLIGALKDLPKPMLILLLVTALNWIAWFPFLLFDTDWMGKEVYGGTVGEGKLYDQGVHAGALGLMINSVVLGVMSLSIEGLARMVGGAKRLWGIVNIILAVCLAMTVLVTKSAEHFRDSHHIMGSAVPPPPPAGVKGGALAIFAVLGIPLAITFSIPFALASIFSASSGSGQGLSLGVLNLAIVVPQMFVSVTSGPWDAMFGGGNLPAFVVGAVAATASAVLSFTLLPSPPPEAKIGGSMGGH
Assay: [14C]-sucrose uptake by yeast strain SUSY7 expressing the spinach sucrose transporter
Assay type: cell-based
Details: [14C]-sucrose uptake, pH 3.8; tested substance 2 mM; read-out: Activity relative to the control [%]
measure_name: remaining activity at 2000 µM

> print(dat)
                            molecule.smiles                             target.entity  result
1  OC[C@H]1O[C@@H](O[C@H]2[C@H](O)[C@@H](O)[C@H](O)O[C@@H]2CO)[C@H](O)[C@@H](O)[C@H]1O  sucrose transporter S21 (SoSUT1) (Spinacia oleracea, UniProt Q03411)   94.9%
2  OC[C@H]1O[C@H](OC[C@H]2O[C@H](O[C@]3(CO)O[C@H](CO)[C@@H](O)[C@@H]3O)[C@H](O)[C@@H](O)[C@@H]2O)[C@H](O)[C@@H](O)[C@H]1O  sucrose transporter S21 (SoSUT1) (Spinacia oleracea, UniProt Q03411)    110%
3  OC[C@H]1O[C@@H](O[C@H]2[C@H](O)[C@@H](O)[C@@H](O)O[C@@H]2CO)[C@H](O)[C@@H](O)[C@H]1O  sucrose transporter S21 (SoSUT1) (Spinacia oleracea, UniProt Q03411)   81.8%

---

Activity relative to the control [%] reference
Target: ammonium transporter AMT1 (Arabidopsis thaliana)
Construct: expressed in transfected cells; host or cells: Saccharomyces cerevisiae 26972c (mutations in MEP1 and MEP2)
Assay: cell-based
Details: [14C]-methylamine uptake; tested substance 500 μM
measure_name: Activity relative to the control [%] (%)

> print(dat)
   molecule.smiles                             target.entity  endpoint.unit  readout.number
1      [Cl-].[Rb+]  ammonium transporter AMT1 (Arabidopsis thaliana)              %              96
2       [Cl-].[K+]  ammonium transporter AMT1 (Arabidopsis thaliana)              %              98
3             Cl.N  ammonium transporter AMT1 (Arabidopsis thaliana)              %              10
4      [Cl-].[Cs+]  ammonium transporter AMT1 (Arabidopsis thaliana)              %              98

---

Target: sucrose transporter S21 (SoSUT1) (Spinacia oleracea, UniProt Q03411)
Construct: expressed in transfected cells; host or cells: Saccharomyces cerevisiae SUSY7
Test: [14C]-sucrose uptake by yeast strain SUSY7 expressing the spinach sucrose transporter
Type: cell-based
Details: [14C]-sucrose uptake, pH 3.8; tested substance 2 mM; read-out: Activity relative to the control [%]
remaining activity at 2000 µM reference
measure_name: remaining activity at 2000 µM

> print(dat)
                                   compound  result
1  OC[C@H]1O[C@@](CO)(O[C@H]2O[C@H](CO)[C@@H](O)[C@H](O)[C@H]2O)[C@@H](O[C@H]2O[C@H](CO)[C@@H](O)[C@H](O)[C@H]2O)[C@@H]1O   97.2%
2  OC[C@H]1O[C@H](OC[C@H]2OC(O)[C@H](O)[C@@H](O)[C@@H]2O)[C@H](O)[C@@H](O)[C@H]1O (some centres unmarked)   92.3%
3  OC[C@H]1O[C@@H](O[C@H]2[C@H](O)[C@@H](O)C(O)O[C@@H]2CO)[C@H](O)[C@@H](O)[C@@H]1O (some centres unmarked)   99.4%
4  O=C(CO)[C@@H](O)[C@H](O)[C@H](O)CO[C@H]1O[C@H](CO)[C@@H](O)[C@H](O)[C@H]1O     85%
5       O=C(CO)[C@@H](O)[C@@H](O)[C@H](O)CO    105%

---

remaining activity at 2000 µM reference
Target: sucrose transporter P62 (StSUT1) (Solanum tuberosum)
Construct: whole-cell [14C]-sucrose uptake; no tag or borders given
Sequence (Q43653 1-516): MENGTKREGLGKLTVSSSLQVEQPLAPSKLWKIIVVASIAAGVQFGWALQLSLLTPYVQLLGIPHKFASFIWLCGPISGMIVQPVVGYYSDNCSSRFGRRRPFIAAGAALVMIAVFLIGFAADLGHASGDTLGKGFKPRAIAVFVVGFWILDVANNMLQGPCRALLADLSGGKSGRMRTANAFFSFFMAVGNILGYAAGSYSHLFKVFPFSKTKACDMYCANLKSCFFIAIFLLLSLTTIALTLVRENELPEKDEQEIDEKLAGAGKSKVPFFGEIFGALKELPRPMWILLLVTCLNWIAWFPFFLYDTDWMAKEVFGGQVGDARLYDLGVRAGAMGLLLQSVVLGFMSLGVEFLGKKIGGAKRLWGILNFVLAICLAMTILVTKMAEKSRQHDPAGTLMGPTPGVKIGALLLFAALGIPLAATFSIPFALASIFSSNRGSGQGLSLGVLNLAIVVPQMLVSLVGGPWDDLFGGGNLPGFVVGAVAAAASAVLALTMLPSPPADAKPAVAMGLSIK
Experiment: [14C]-sucrose uptake by yeast strain SUSY-7-P62 (StSUT1) expressing the potato sucrose transporter
Type: cell-based
Conditions: [14C]-sucrose uptake, pH 3.8; tested substance 2 mM; read-out: Activity relative to the control [%]
measure_name: remaining activity at 2000 µM

> print(dat)
                            molecule.smiles  result
1  OC[C@H]1O[C@@H](O[C@H]2[C@H](O)[C@@H](O)[C@H](O)O[C@@H]2CO)[C@H](O)[C@@H](O)[C@H]1O     91%
2       O=C(CO)[C@@H](O)[C@@H](O)[C@H](O)CO    103%
3  OC[C@H]1O[C@H](OC[C@H]2O[C@H](O[C@]3(CO)O[C@H](CO)[C@@H](O)[C@@H]3O)[C@H](O)[C@@H](O)[C@@H]2O)[C@H](O)[C@@H](O)[C@H]1O    110%
4  O=C(CO)[C@@H](O)[C@H](O)[C@H](O)CO[C@H]1O[C@H](CO)[C@@H](O)[C@H](O)[C@H]1O    102%
